- assay.system: monoclonal antibody D32.39
surface (amide) = not defined here
measured.parameter: Normalized Intensity (%)
Output spec: scalar in %, unitless text.

These recorded examples may help you get a feel for the data.
Ac-RQFKVVT-{surface (amide)} (reading uncertain; also: C-terminus amide-linked to surface) [RQFKVVT, surface-immobilized peptide] | 99
Ac-LRRQFKV-{surface (amide)} (reading uncertain; also: C-terminus amide-linked to surface) [LRRQFKV, surface-immobilized peptide] | 16

Switching to the query record.
Give Normalized Intensity (%) for the following binder: Ac-RRQFK-{surface (amide)} (reading uncertain; also: C-terminus amide-linked to surface) [RRQFK, surface-immobilized peptide] 12
